Target under test: Integrin alpha-IIb/beta-3 (Homo sapiens)
Protocol text: Displacement of FITC-Fg from integrin alphaIIbbeta3 receptor expressed in human activated platelets
pIC50: −log10 of the molar value.
Value kind: pIC50

[[record]]
molecule = "COc1ccc(C(CC(=O)O)NC(=O)c2cccc(C(=O)Nc3ccc4c(c3)CNCC4)c2)cc1 (stereo not drawn)"
assay_result = 9.10

[[record]]
molecule = "O=C(O)CCNC(=O)c1cc(C(=O)Nc2ccc3c(c2)CNCC3)cc([N+](=O)[O-])c1"
assay_result = 7.49

[[record]]
molecule = "COc1ccc(C(CC(=O)O)NC(=O)c2cc(C(=O)Nc3ccc4c(c3)CNCC4)cc([N+](=O)[O-])c2)cc1OC (stereo not drawn)"
assay_result = 8.43

[[record]]
molecule = "COc1ccc(C(CC(=O)O)NC(=O)c2cccc(C(=O)Nc3ccc4c(c3)CNCC4)c2)cc1OC (stereo not drawn)"
assay_result = 9.15

[[record]]
molecule = "O=C(O)CC(NC(=O)c1cccc(C(=O)Nc2ccc3c(c2)CNCC3)c1)c1ccccc1 (stereo not drawn)"
assay_result = 9.00

[[record]]
molecule = "O=C(O)CC(NC(=O)c1cc(C(=O)Nc2ccc3c(c2)CNCC3)cc([N+](=O)[O-])c1)c1ccccc1 (stereo not drawn)"
assay_result = 8.10

[[record]]
molecule = "COc1ccc(C(CC(=O)O)NC(=O)c2cc(C(=O)Nc3ccc4c(c3)CNCC4)cc([N+](=O)[O-])c2)cc1 (stereo not drawn)"
assay_result = 8.30

[[record]]
molecule = "O=C(O)CCNC(=O)c1cccc(C(=O)Nc2ccc3c(c2)CNCC3)c1"
assay_result = 8.05

